Source: patent US20030186967A1

# system: Vitronectin receptor αVβ3 (Homo sapiens, UniProt P05106+P06756)
# Sequence (P06756 31-889 limits assumed): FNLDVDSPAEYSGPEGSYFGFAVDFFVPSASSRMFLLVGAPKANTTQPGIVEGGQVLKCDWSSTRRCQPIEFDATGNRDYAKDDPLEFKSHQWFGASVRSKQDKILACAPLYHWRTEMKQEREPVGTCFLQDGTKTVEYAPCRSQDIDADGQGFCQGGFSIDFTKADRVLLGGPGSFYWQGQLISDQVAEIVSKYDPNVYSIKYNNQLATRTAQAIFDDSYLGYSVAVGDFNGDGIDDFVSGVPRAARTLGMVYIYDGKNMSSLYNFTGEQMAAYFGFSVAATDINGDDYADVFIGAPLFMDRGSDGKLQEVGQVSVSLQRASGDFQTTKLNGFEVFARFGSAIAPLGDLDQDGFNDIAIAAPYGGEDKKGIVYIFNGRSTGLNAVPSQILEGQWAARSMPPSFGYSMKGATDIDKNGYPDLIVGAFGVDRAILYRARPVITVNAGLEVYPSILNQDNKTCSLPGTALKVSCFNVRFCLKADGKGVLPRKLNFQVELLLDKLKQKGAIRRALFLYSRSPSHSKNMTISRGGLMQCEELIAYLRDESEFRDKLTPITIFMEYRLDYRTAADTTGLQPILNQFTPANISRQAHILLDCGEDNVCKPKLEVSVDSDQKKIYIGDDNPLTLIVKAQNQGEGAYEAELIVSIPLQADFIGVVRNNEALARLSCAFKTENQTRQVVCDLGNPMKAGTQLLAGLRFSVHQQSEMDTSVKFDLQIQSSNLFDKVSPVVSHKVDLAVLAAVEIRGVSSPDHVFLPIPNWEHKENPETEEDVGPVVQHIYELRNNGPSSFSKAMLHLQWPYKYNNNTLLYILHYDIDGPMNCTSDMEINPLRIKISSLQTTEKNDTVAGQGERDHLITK
# Sequence (P06756 891-1048 partner limits assumed): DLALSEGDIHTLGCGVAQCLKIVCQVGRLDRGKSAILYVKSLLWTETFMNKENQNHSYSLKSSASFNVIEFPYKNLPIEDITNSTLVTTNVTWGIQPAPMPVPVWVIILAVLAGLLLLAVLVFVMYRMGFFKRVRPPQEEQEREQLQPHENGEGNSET
# Sequence (P05106 27-788): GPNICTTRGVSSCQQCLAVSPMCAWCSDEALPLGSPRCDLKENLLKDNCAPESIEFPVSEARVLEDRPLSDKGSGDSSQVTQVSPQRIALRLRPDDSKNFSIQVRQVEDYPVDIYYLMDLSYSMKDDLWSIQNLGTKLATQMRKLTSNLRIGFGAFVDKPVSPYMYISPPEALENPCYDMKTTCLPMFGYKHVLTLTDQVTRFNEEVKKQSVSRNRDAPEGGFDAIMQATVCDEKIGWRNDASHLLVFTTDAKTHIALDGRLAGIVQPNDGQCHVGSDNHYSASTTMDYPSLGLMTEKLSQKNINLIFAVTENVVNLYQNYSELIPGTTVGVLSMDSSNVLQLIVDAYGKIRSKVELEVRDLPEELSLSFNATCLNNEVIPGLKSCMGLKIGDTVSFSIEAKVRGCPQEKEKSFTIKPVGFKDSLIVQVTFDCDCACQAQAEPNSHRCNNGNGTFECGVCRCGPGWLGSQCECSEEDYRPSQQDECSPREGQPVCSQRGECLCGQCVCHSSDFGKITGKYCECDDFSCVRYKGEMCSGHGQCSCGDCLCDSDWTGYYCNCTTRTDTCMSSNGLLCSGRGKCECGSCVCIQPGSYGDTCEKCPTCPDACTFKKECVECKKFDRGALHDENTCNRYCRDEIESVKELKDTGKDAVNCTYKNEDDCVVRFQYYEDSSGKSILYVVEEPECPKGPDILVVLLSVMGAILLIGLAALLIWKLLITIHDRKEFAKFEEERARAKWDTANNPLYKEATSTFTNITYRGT
# test protocol: Vitronectin Receptor αVβ3 Binding Assay
# condition label: read-out: VnR (IC50μM)
In this section, each of the compounds is paired with its reported IC50.
quantity name: IC50

smiles text: CC(C)(C)CC(=O)N[C@@H](CNC(=O)c1ccc(OCCNC(=N)N)cc1O)C(=O)O
result: > 1 µM
//
smiles text: N=C(N)NCCOc1ccc(C(=O)NC[C@H](NC(=O)c2ccc(Br)cc2)C(=O)O)c(O)c1
result: > 1 µM
//
smiles text: O=C(N[C@@H](CNC(=O)c1ccc(OCCNC2=NCCN2)cc1O)C(=O)O)c1ccc(Br)cc1
result: > 1 µM
//
smiles text: COc1ccc(C(=O)N[C@@H](CNC(=O)c2ccc(OCCNC3=NCCN3)cc2O)C(=O)O)cc1
result: > 1 µM
//
smiles text: O=C(NCCOc1ccc(C(=O)NC[C@H](NC(=O)OCc2ccccc2)C(=O)O)c(O)c1)NCc1ccc(Cl)cc1Cl
result: 21.7 µM
//
smiles text: O=C(N[C@@H](CNC(=O)c1ccc(OCCNc2ncccn2)cc1O)C(=O)O)Oc1ccccc1
result: 34 µM
//
smiles text: O=C(NC1CCCCC1)N[C@@H](CNC(=O)c1ccc(OCCNc2ncccn2)cc1O)C(=O)O
result: > 1 µM
//
smiles text: CCCCCCCCNC(=O)N[C@@H](CNC(=O)c1ccc(OCCNc2ncccn2)cc1O)C(=O)O
result: > 1 µM
//
smiles text: CC1(C)C(C(=O)N[C@@H](CNC(=O)c2ccc(OCCNC(=N)N)cc2O)C(=O)O)C1(C)C
result: > 1 µM
//
smiles text: N=C(N)NCCOc1ccc(C(=O)NC[C@H](NC(=O)NC2CCCCC2)C(=O)O)c(O)c1
result: 4.98 µM
